# credit: the supplement of paper PMC5940239

Below, each entry is listed with its recorded IC90.
# Tested on: Madurella mycetomatis MM55
# assay overview: IC90; higher = less potent
# measurement setup: 7 days
Write the value in µM as a bare number.

Use these answered entries as a reference point.
1. O=C(NCCc1ccccc1)c1cc(-c2cccnc2)cnc1NCC1CC1 | 92.4
2. CN1CCN(c2cc(-c3ccc(F)cc3)nc(-c3ccncc3)n2)CC1 | 91.2
3. OCc1ccc(-c2cncc(Nc3cccc(Cl)c3)c2)cc1 | 98.2
4. O=C(c1cc2ccccc2o1)N1CCN(Cc2ccc3c(c2)OCO3)CC1 | 87.5
5. O=C(Nc1cccc(-c2ccc(NCCCN3CCCC3)nc2)c1)c1ccccc1 | 90.9
6. CNc1nnc(Sc2cnn(-c3ccccc3)c(=O)c2Cl)s1 | 90.8
7. O=C(c1ccco1)N(CCCn1ccnc1)c1nc2c(Cl)cccc2s1 | 94
8. COc1ccccc1OCCCCn1c(C2CC2)nc2ccccc21 | 92.7

Request: Look up IC90 for this molecule: "CN1CCN(CCCOc2ncc(Nc3ncc(-c4ccc(C(F)(F)F)c(F)c4)nc3C(N)=O)cn2)CC1"
Response: 85.2

Request: Look up IC90 for this molecule: "O=C(Nc1nnc(-c2ccc(Cl)s2)o1)c1ccc(Cl)s1"
Response: 93.7

Request: Look up IC90 for this molecule: "Clc1ccc(Cl)c(CO[C@H]2CCCC[C@@H]2n2ccnc2)c1"
Response: 67.5

###

Below, each entry is listed with its recorded IC50.
# System: Madurella mycetomatis MM55
# measurement setup: 7 days
Write the value in µM as a bare number.

Use these answered entries as a reference point.
1) Cc1ccc2c(c1C)NC(=O)C21NN=C(c2ccccc2)S1 (stereo unspecified) | 37.9
2) O=C1COCc2ccc(Br)cc2N1Cc1ccc(C(F)(F)F)cc1 | 45
3) c1ccc(-c2nc(NC3CCCCC3)cc(C3CC3)n2)nc1 | 10.3
4) COc1ccc(CN2CCOc3ccc(C(C)(O)CN(C)C)cc3C2)cc1C (stereo unspecified) | 60.6
5) O=C(C1CCN(c2cc(-n3cccc3)ncn2)CC1)N1CCc2ccccc2C1 | 62.1

Request: Look up IC50 for this molecule: NCC(c1cccs1)S(=O)(=O)c1ccccc1 (stereo unspecified)
Response: 53.9

Request: Look up IC50 for this molecule: "Cc1ccc2nc(C)c(-c3ccn(Cc4ccccc4)n3)n2c1"
Response: 39.8

Request: Look up IC50 for this molecule: CC(=O)Nc1ccc(-c2noc(CC3CCCN(Cc4cccc(F)c4C)C3)n2)cc1 (stereo unspecified)
Response: 66.2

###

# Tested on: Madurella mycetomatis MM55
# assay overview: percent growth relative to solvent control; higher = less inhibition, active = 20 or less
# measurement setup: 100 µM; 7 days
result type: percent growth (%)
Write the value in % as a bare number.

1) Cc1ccc(Oc2ccc(NC(=O)CNc3ccccc3N3CCCC3=O)cc2)cc1 | 107
2) O=C(CN1CCOCC1)Nc1ccc2ncnc(Nc3ccc(OCc4cccc(F)c4)c(Cl)c3)c2c1 | 79.4
3) CNc1nnc(Sc2cnn(-c3ccccc3)c(=O)c2Cl)s1 | -0.261
4) O=C(Nc1ccccc1-c1nc2c(C(=O)O)cccc2o1)c1ccccc1 | 94
5) CCC(C)NC(=O)c1ccc(NC(=O)C2(c3ccccc3)CCCC2)cc1 (stereo unspecified) | 96.7

Now look at this one.
Request: Look up percent growth for this compound: "NC(=O)c1cc(Br)ccc1OCCOc1ccccc1"
Response: 92.8

###

Below, each entry is listed with its recorded IC90.
# System: Madurella mycetomatis MM55
# assay overview: IC90; higher = less potent
# measurement setup: 7 days
Write the value in µM as a bare number.

1) C[C@H](C(N)=O)N1CCCC[C@H]1c1ccc(OCc2cccc(F)c2)cc1 | 94.4

Request: Look up IC90 for this compound: "Cc1ccc2nc(Cl)c(CNCc3cccs3)cc2c1"
Response: 54.5

Request: Look up IC90 for this compound: "CCCCCCCCCCCCCCCCOP(=O)([O-])OCC[N+](C)(C)C"
Response: 90.8

Request: Look up IC90 for this compound: "Cc1cnc(N2CCN[C@@H](Cc3ccccc3)C2)nc1Oc1ccc(-n2ccnc2)cc1"
Response: 20.8

Request: Look up IC90 for this compound: "FC(F)(F)c1cc(NCCc2ccccc2)nc(-c2ccccn2)n1"
Response: 91.1

Request: Look up IC90 for this compound: "Oc1c(I)cc(I)c2cccnc12"
Response: 4.65

###

Below, each entry is listed with its recorded percent growth.
# Test system: Madurella mycetomatis MM55
# assay overview: percent growth relative to solvent control; higher = less inhibition, active = 20 or less
# measurement setup: 100 µM; 7 days
Write the value in % as a bare number.

1. CCC(=O)Nc1ccccc1C(=O)Nc1ccccn1 | 62.5
2. Cc1cc(Cl)ccc1NC(=O)CCc1ccc(S(=O)(=O)NCC(C)C)cc1 | 91.1

Request: Look up percent growth for this compound: "CCS(=O)(=O)N(Cc1ccco1)Cc1cc2ccc(C)cc2nc1O"
Response: 85

Request: Look up percent growth for this compound: CNC(=O)C1Cc2c([nH]c3cc(Cl)ccc23)C2(CCN(CCc3ccccc3)CC2)N1 (configuration not stated)
Response: 70

###

Below, each entry is listed with its recorded percent growth.
# System: Madurella mycetomatis MM55
# assay overview: percent growth relative to solvent control; higher = less inhibition, active = 20 or less
# measurement setup: 100 µM; 7 days
Write the value in % as a bare number.

1) CS(=O)(=O)N1CCC(CCn2nc(Cc3cccc4ccccc34)c3c(N)ncnc32)CC1 | 81.9
2) CC(Oc1cccc(Cl)c1)C(=O)Nc1ccc2oc(-c3ccncc3)nc2c1 (stereo not given) | 51.2
3) CCCCc1ccc(C(=O)Nc2nccc3ccccc23)nc1 | -1.16
4) CC(=O)N(CCN(C(=O)c1ccc(F)cc1)c1ccccc1)c1ccccc1 | 48.9
5) NCCN(C(=O)c1ccc(Cl)cc1Cl)c1ccc(OCc2ccc(Cl)cc2)cc1 | 4.52

Request: Look up percent growth for this compound: "Cc1cc2nc(NC(=O)C(C)(C)C)nc(Cl)c2n1Cc1ccc(Cl)cc1"
Response: 82.9

Request: Look up percent growth for this compound: "Cc1cccc(-c2nc(Nc3ccncn3)c3sccc3n2)n1"
Response: 1.77

Request: Look up percent growth for this compound: COc1ccc(CN2CCOc3ccc(C(C)(O)CN(C)C)cc3C2)cc1C (stereo not given)
Response: 2.42

Request: Look up percent growth for this compound: "COc1ccc(C2(C(=O)Nc3ccc(Br)cc3)CCCC2)cc1"
Response: 56.2

Request: Look up percent growth for this compound: "Nc1ncnc2c1ncn2[C@@H]1O[C@H](COS(=O)(=O)NC(=O)c2ccccc2O)[C@@H](O)[C@H]1O"
Response: 60.6

###

# Tested on: Madurella mycetomatis MM55
# assay overview: percent growth relative to solvent control; higher = less inhibition, active = 20 or less
# measurement setup: 100 µM; 7 days
Below, each entry is listed with its recorded percent growth.
Write the value in % as a bare number.

Use these answered entries as a reference point.
1) CC(C)(C)c1cc(C(=O)N2CCN(c3nccnc3C#N)CC2)n(Cc2ccccc2)n1 | 56.8
2) CC(C)C(NC(=O)Cc1cccc2ccccc12)C(=O)Nc1cccc(C#N)c1 (stereo not given) | 121
3) CCn1ncc2c(NC3CCOCC3)c(CNC(=O)c3ccnn3C)c(C)nc21 | 142
4) N#Cc1nc(-c2ccccc2)oc1S(=O)(=O)c1ccc(Cl)cc1 | 31.4

Now look at this one.
Request: Look up percent growth for this compound: "O=C(Nc1c(O)cccc1-c1nc2c(C(=O)O)cccc2o1)c1cc(-c2ccccc2)on1"
Response: 113

###

# Test system: Madurella mycetomatis MM55
# assay overview: percent growth relative to solvent control; higher = less inhibition, active = 20 or less
# measurement setup: 100 µM; 7 days
Entry flag: label 1 if percent growth reaches 90%; label 0 if it does not.

1) Brc1c(-c2ccc3c(c2)OCO3)nc2ncccn12 | label 0
2) Cc1cc(NCCc2ccccc2)nc(NC(=N)Nc2ccc(Cl)cc2)n1 | label 0
3) CN1CCN(CCCOc2ncc(Nc3ncc(-c4ccc(C(F)(F)F)c(F)c4)nc3C(N)=O)cn2)CC1 | label 0
4) Cc1ccccc1CN1CCC(O)(c2ccc(Cl)c(C(F)(F)F)c2)CC1 | label 0

Request: Is percent growth at least 90%? Consider "Cn1c(=O)c2c(S(C)(=O)=O)snc2n(C)c1=O"
Response: label 0

Request: Is percent growth at least 90%? Consider "CCCS(=O)(=O)N1CCC(CO)(Cc2ccccc2C(F)(F)F)CC1"
Response: label 0

Request: Is percent growth at least 90%? Consider OC[C@H]1O[C@@H](n2c3ccc(Cl)cc3c3c(-c4cc5ccccc5o4)ncnc32)C(O)[C@H]1O (stereo not given in full)
Response: label 1

Request: Is percent growth at least 90%? Consider CC1=Nc2ccc(Cl)cc2C(c2ccccc2)N1CCNC(=O)CN(C)C (stereo not given)
Response: label 1
